Hey, just so you know, these numbers are from patent EP0248954B1.

For each record, write down the corresponding Distribution coefficient (D.C.).
Experiment: Single-stage extraction: partitioning of dicofol technical between n-heptane and 90% aqueous methanol
Assay type: physicochemical
Conditions: dicofol technical spiked with 1.80 Wt % p,p'-DDD and separately p,p'-DDT; 50g of 33% solution in 90% aqueous methanol; 40g n-heptane; 23°C
Give bare numbers.

[
  {
    "compound.string": "Clc1ccc(C(c2ccc(Cl)cc2)C(Cl)(Cl)Cl)cc1",
    "quantitative.readout": 2.1
  }
]

Could you tell me Distribution coefficient (D.C.) for each of these compounds? They are listed below.
1. Clc1ccc(C(c2ccc(Cl)cc2)C(Cl)Cl)cc1
2. Clc1ccc(C(Cl)(c2ccc(Cl)cc2)C(Cl)(Cl)Cl)cc1
3. ClC(Cl)=C(c1ccc(Cl)cc1)c1ccccc1Cl

### Response
[0.79, 3.8, 2.4]
